- target: Neuronal acetylcholine receptor; alpha3/beta4 (Rattus norvegicus) (UniProt P04757+P12392)
- assay_procedure: Agonist activity at rat alpha3beta4 nAChR expressed in Xenopus laevis oocytes at 100 uM after 2 to 6 days by two electrode voltage clamp assay relative to acetylcholine
- Type: functional, cell-based
- experimental_conditions: Oocyte
reported_endpoint: %max (%)

{"columns": ["molecule", "reported_endpoint", "experimental_value"],
 "data": [
  ["c1cnc2cc3c(cc2n1)[C@@H]1CNC[C@H]3C1", "%max", 66],
  ["N#Cc1ccc(-c2cc(C3CC4CCC3N4)cnc2F)cc1 (racemic)", "%max", 6],
  ["Clc1ccc([C@H]2CC3CCC2N3)cn1 (mixture of isomers)", "%max", 97],
  ["CS(=O)(=O)c1ccc(-c2cc(C3CC4CCC3N4)cnc2F)cc1 (racemic)", "%max", 0],
  ["NS(=O)(=O)c1ccc(-c2cc(C3CC4CCC3N4)cnc2F)cc1 (racemic)", "%max", 0],
  ["Fc1ncc(C2CC3CCC2N3)cc1-c1ccc(C(F)(F)F)cc1 (racemic)", "%max", 0],
  ["O=S(=O)(c1ccc(-c2cc(C3CC4CCC3N4)cnc2F)cc1)C(F)(F)F (racemic)", "%max", 1.9],
  ["NC(=O)c1ccc(-c2cc(C3CC4CCC3N4)cnc2F)cc1 (racemic)", "%max", 8],
  ["O=[N+]([O-])c1ccc(-c2cc(C3CC4CCC3N4)cnc2F)cc1 (racemic)", "%max", 4]
]}

---

- Tested on: Mus musculus
- assay_procedure: Effect on spontaneous locomotor activity in mouse at 10 mg/kg, sc after 5 mins by photocell based method
- Type: functional
- experimental_conditions: route subcutaneous

{"columns": ["compound", "target", "value_unit", "Activity"],
 "data": [
  ["CS(=O)(=O)c1ccc(-c2cc(C3CC4CCC3N4)cnc2F)cc1 (racemic)", "Mus musculus", "%", 12],
  ["NS(=O)(=O)c1ccc(-c2cc(C3CC4CCC3N4)cnc2F)cc1 (racemic)", "Mus musculus", "%", 5],
  ["N#Cc1ccc(-c2cc(C3CC4CCC3N4)cnc2F)cc1 (racemic)", "Mus musculus", "%", 0],
  ["Fc1ncc(C2CC3CCC2N3)cc1-c1ccc(C(F)(F)F)cc1 (racemic)", "Mus musculus", "%", 5]
]}

---

- target: Neuronal acetylcholine receptor; alpha3/beta4 (Rattus norvegicus) (UniProt P04757+P12392)
- assay_procedure: Antagonist activity at rat alpha3beta4 nAChR expressed in Xenopus laevis oocytes assessed as inhibition of acetylcholine-induced response at 100 uM after 2 to 6 days by two electrode voltage clamp assay
- Format: functional, cell-based
- experimental_conditions: Oocyte
The compounds listed here are annotated with their inhibition.

{"columns": ["compound", "target", "inhibition, %"],
 "data": [
  ["NS(=O)(=O)c1ccc(-c2cc(C3CC4CCC3N4)cnc2F)cc1 (racemic)", "Neuronal acetylcholine receptor; alpha3/beta4 (Rattus norvegicus) (UniProt P04757+P12392)", 5],
  ["O=[N+]([O-])c1ccc(-c2cc(C3CC4CCC3N4)cnc2F)cc1 (racemic)", "Neuronal acetylcholine receptor; alpha3/beta4 (Rattus norvegicus) (UniProt P04757+P12392)", 9],
  ["Fc1ncc(C2CC3CCC2N3)cc1-c1ccc(C(F)(F)F)cc1 (racemic)", "Neuronal acetylcholine receptor; alpha3/beta4 (Rattus norvegicus) (UniProt P04757+P12392)", 4],
  ["CS(=O)(=O)c1ccc(-c2cc(C3CC4CCC3N4)cnc2F)cc1 (racemic)", "Neuronal acetylcholine receptor; alpha3/beta4 (Rattus norvegicus) (UniProt P04757+P12392)", 25],
  ["O=S(=O)(c1ccc(-c2cc(C3CC4CCC3N4)cnc2F)cc1)C(F)(F)F (racemic)", "Neuronal acetylcholine receptor; alpha3/beta4 (Rattus norvegicus) (UniProt P04757+P12392)", 15],
  ["NC(=O)c1ccc(-c2cc(C3CC4CCC3N4)cnc2F)cc1 (racemic)", "Neuronal acetylcholine receptor; alpha3/beta4 (Rattus norvegicus) (UniProt P04757+P12392)", 36],
  ["N#Cc1ccc(-c2cc(C3CC4CCC3N4)cnc2F)cc1 (racemic)", "Neuronal acetylcholine receptor; alpha3/beta4 (Rattus norvegicus) (UniProt P04757+P12392)", 17]
]}

---

The molecules listed here are annotated with their pKi.
- target: Neuronal acetylcholine receptor subunit alpha-7 (Rattus norvegicus)
- Sequence (Q05941 whole entry): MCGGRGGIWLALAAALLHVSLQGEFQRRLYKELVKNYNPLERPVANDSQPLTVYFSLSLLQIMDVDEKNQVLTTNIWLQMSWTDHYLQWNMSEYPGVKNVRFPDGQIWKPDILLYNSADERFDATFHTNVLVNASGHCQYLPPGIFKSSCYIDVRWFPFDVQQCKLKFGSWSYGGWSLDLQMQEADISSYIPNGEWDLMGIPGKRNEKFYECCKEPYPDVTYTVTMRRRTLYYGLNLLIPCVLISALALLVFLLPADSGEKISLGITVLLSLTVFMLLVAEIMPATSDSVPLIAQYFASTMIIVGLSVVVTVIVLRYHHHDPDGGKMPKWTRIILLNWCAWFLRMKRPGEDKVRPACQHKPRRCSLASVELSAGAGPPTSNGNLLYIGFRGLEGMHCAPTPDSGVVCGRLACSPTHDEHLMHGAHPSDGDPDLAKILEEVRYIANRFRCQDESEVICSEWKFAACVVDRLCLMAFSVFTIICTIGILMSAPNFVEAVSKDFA
- assay_procedure: Displacement of [125I]iodoMLA from rat cerebral cortex alpha7 nAChR at 50 nM incubated for 2 hrs by microplate scintillation assay
pKi: −log10 of the molar value.
reported_endpoint: pKi

{"columns": ["molecule", "target", "experimental_value"],
 "data": [
  ["NC(=O)c1ccc(-c2cc(C3CC4CCC3N4)cnc2F)cc1 (racemic)", "Neuronal acetylcholine receptor subunit alpha-7 (Rattus norvegicus)", 5.73],
  ["NS(=O)(=O)c1ccc(-c2cc(C3CC4CCC3N4)cnc2F)cc1 (racemic)", "Neuronal acetylcholine receptor subunit alpha-7 (Rattus norvegicus)", "< 5.70"],
  ["Fc1ncc(C2CC3CCC2N3)cc1-c1ccc(C(F)(F)F)cc1 (racemic)", "Neuronal acetylcholine receptor subunit alpha-7 (Rattus norvegicus)", "< 5.70"],
  ["O=[N+]([O-])c1ccc(-c2cc(C3CC4CCC3N4)cnc2F)cc1 (racemic)", "Neuronal acetylcholine receptor subunit alpha-7 (Rattus norvegicus)", "< 5.70"],
  ["N#Cc1ccc(-c2cc(C3CC4CCC3N4)cnc2F)cc1 (racemic)", "Neuronal acetylcholine receptor subunit alpha-7 (Rattus norvegicus)", "< 5.70"],
  ["O=S(=O)(c1ccc(-c2cc(C3CC4CCC3N4)cnc2F)cc1)C(F)(F)F (racemic)", "Neuronal acetylcholine receptor subunit alpha-7 (Rattus norvegicus)", "< 5.70"]
]}

---

The compounds listed here are annotated with their inhibition.
- target: Neuronal acetylcholine receptor; alpha4/beta2 (Rattus norvegicus) (UniProt P09483+P12390)
- assay_procedure: Antagonist activity at rat alpha4beta2 nAChR expressed in Xenopus laevis oocytes assessed as inhibition of acetylcholine-induced response at 100 uM after 2 to 6 days by two electrode voltage clamp assay
- Format: functional, cell-based
- experimental_conditions: Oocyte

{"columns": ["compound", "target", "inhibition / %"],
 "data": [
  ["NS(=O)(=O)c1ccc(-c2cc(C3CC4CCC3N4)cnc2F)cc1 (racemic)", "Neuronal acetylcholine receptor; alpha4/beta2 (Rattus norvegicus) (UniProt P09483+P12390)", 4],
  ["Fc1ncc(C2CC3CCC2N3)cc1-c1ccc(C(F)(F)F)cc1 (racemic)", "Neuronal acetylcholine receptor; alpha4/beta2 (Rattus norvegicus) (UniProt P09483+P12390)", 8],
  ["N#Cc1ccc(-c2cc(C3CC4CCC3N4)cnc2F)cc1 (racemic)", "Neuronal acetylcholine receptor; alpha4/beta2 (Rattus norvegicus) (UniProt P09483+P12390)", 8],
  ["NC(=O)c1ccc(-c2cc(C3CC4CCC3N4)cnc2F)cc1 (racemic)", "Neuronal acetylcholine receptor; alpha4/beta2 (Rattus norvegicus) (UniProt P09483+P12390)", 6],
  ["O=[N+]([O-])c1ccc(-c2cc(C3CC4CCC3N4)cnc2F)cc1 (racemic)", "Neuronal acetylcholine receptor; alpha4/beta2 (Rattus norvegicus) (UniProt P09483+P12390)", 6],
  ["O=S(=O)(c1ccc(-c2cc(C3CC4CCC3N4)cnc2F)cc1)C(F)(F)F (racemic)", "Neuronal acetylcholine receptor; alpha4/beta2 (Rattus norvegicus) (UniProt P09483+P12390)", 7],
  ["c1cnc2cc3c(cc2n1)[C@@H]1CNC[C@H]3C1 [VARENICLINE]", "Neuronal acetylcholine receptor; alpha4/beta2 (Rattus norvegicus) (UniProt P09483+P12390)", 38]
]}

---

- target: Neuronal acetylcholine receptor; alpha4/beta2 (Rattus norvegicus, UniProt P09483+P12390)
- Sequence (P09483 whole entry): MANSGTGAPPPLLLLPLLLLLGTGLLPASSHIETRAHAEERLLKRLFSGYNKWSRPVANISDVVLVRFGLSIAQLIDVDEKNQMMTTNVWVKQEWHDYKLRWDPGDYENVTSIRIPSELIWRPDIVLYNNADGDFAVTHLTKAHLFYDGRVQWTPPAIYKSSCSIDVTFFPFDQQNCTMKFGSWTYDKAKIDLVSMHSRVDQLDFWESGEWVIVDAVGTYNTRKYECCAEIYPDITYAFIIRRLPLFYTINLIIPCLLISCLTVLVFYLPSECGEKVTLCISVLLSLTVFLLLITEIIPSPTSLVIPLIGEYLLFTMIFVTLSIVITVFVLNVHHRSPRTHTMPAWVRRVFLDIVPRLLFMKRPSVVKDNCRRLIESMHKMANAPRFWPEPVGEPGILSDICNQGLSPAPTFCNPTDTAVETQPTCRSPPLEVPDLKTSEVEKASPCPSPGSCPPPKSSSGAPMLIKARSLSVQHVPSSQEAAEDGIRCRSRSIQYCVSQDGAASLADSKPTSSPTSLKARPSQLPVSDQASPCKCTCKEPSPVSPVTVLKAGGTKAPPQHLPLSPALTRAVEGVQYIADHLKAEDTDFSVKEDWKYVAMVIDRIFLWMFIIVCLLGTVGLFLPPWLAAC
- Sequence (P12390 whole entry): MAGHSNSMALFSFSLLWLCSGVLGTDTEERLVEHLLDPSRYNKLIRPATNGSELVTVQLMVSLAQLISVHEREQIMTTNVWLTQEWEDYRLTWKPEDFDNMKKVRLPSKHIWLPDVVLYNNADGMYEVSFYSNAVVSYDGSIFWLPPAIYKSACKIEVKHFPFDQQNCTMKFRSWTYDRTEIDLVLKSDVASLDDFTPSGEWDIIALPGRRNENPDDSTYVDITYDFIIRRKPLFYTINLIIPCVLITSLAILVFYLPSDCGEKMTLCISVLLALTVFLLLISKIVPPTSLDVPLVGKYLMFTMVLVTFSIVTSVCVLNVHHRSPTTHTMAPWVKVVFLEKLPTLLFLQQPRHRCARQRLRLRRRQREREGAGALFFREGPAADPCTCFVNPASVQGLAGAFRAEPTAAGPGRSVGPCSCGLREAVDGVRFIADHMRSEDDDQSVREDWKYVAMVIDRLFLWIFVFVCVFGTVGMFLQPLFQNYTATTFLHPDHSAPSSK
- assay_procedure: Antagonist activity at rat alpha4beta2 nAChR expressed in Xenopus laevis oocytes assessed as inhibition of acetylcholine-induced response after 2 to 6 days by two electrode voltage clamp assay
pIC50: −log10 of the molar value.
reported_endpoint: pIC50

{"columns": ["compound", "experimental_value"],
 "data": [
  ["O=[N+]([O-])c1ccc(-c2cc(C3CC4CCC3N4)cnc2F)cc1 (racemic)", 5.49],
  ["N#Cc1ccc(-c2cc(C3CC4CCC3N4)cnc2F)cc1 (racemic)", 4.96],
  ["NC(=O)c1ccc(-c2cc(C3CC4CCC3N4)cnc2F)cc1 (racemic)", 5.82],
  ["Fc1ncc(C2CC3CCC2N3)cc1-c1ccc(C(F)(F)F)cc1 (racemic)", 5.22],
  ["CS(=O)(=O)c1ccc(-c2cc(C3CC4CCC3N4)cnc2F)cc1 (racemic)", 5.55]
]}

---

- target: Neuronal acetylcholine receptor subunit alpha-7 (Rattus norvegicus)
- assay_procedure: Antagonist activity at rat alpha7 nAChR expressed in Xenopus laevis oocytes assessed as inhibition of acetylcholine-induced response after 2 to 6 days by two electrode voltage clamp assay
pIC50: −log10 of the molar value.

{"columns": ["compound", "target", "pIC50"],
 "data": [
  ["N#Cc1ccc(-c2cc(C3CC4CCC3N4)cnc2F)cc1 (racemic)", "Neuronal acetylcholine receptor subunit alpha-7 (Rattus norvegicus)", 4.01],
  ["NC(=O)c1ccc(-c2cc(C3CC4CCC3N4)cnc2F)cc1 (racemic)", "Neuronal acetylcholine receptor subunit alpha-7 (Rattus norvegicus)", 4.46],
  ["O=[N+]([O-])c1ccc(-c2cc(C3CC4CCC3N4)cnc2F)cc1 (racemic)", "Neuronal acetylcholine receptor subunit alpha-7 (Rattus norvegicus)", 4.49],
  ["Fc1ncc(C2CC3CCC2N3)cc1-c1ccc(C(F)(F)F)cc1 (racemic)", "Neuronal acetylcholine receptor subunit alpha-7 (Rattus norvegicus)", 5.40]
]}
